# Tested Target: KRas G12S (Homo sapiens, UniProt P01116, G12S)
# Construct: Biotinylated KRas (corresponding to amino acids 1-169, produced at Accelegan Inc.); biotin (biotinylated); purchased Accelegan Inc
# Sequence (P01116 1-169 isoform P01116-2 G12S): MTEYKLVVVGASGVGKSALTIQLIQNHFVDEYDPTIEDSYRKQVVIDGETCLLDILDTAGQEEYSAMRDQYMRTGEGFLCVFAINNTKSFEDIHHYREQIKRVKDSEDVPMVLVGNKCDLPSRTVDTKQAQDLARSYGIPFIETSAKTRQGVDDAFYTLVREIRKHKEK
# Experiment Summary: KRas binding assay, TR-FRET displacement of Cy5 labelled tracer
# Condition Context: 60-minute incubation at room temperature, 1% DMSO, pH 7.5
Measured Property: IC50 (nM)

INSERT INTO measurements (compound, measured_property, endpoint_unit, value_observed) VALUES
  ('CCc1c(F)ccc2cc(O)cc(-c3ncc4c(N5CCC(C(=O)n6ccc(C)n6)CC5)nc(OC[C@@]56CCCN5C/C(=C\F)C6)nc4c3F)c12', 'IC50', 'nM', 17),
  ('CCc1c(F)ccc2cc(O)cc(-c3ncc4c(N(C)CC(C)CC(=O)N(C)C(C)=O)nc(OC[C@@]56CCCN5C[C@H](F)C6)nc4c3F)c12 (stereo partly drawn)', 'IC50', 'nM', 134),
  ('CCc1c(F)ccc2cc(O)cc(-c3ncc4c(N5CCCCC(C(=O)n6ccc(C)n6)C5)nc(OC[C@@]56CCCN5C[C@H](F)C6)nc4c3F)c12 (stereo partly drawn)', 'IC50', 'nM', 6);

[P] CCc1c(F)ccc2cc(O)cc(-c3ncc4c(N5CCC(C(=O)n6ccc(C)n6)C6CC65)nc(OC[C@@]56CCCN5C[C@H](F)C6)nc4c3F)c12 (stereo partly drawn)
[Q] CCc1c(F)ccc2cc(O)cc(-c3ncc4c(N5CCC(C)(C(=O)n6ccc(C)n6)CC5)nc(OC[C@@]56CCCN5C[C@H](F)C6)nc4c3F)c12
Which has the higher IC50, P or Q ? # respond with the chosen item's label
Q
(Q: 402 nM, P: 201 nM)
